The entries below are paired with their reported AUC of viability dose-response curve.
System: NOMO1
ASSAY PROCEDURE: AUC of viability dose-response curve (% viability x log10 dose units); higher = less sensitive
STUDY CONDITIONS: RPMI 5 mM glucose + 10% dialyzed FBS; 48 h
QUANTITY MEASURED: AUC of viability dose-response curve

MOLECULE	RESULT
COc1ccc(C(=O)c2c(C)n(CCN3CCOCC3)c3ccccc23)cc1	430
N#CC(c1ccnc(NCCc2cccnc2)n1)c1nc2ccccc2s1 (stereo not drawn)	450
C=C1C(=O)[C@@]23C(CC[C@@H]1[C@H]2O)[C@@]12CO[C@]3(O)[C@@H](O)[C@@H]1C(C)(C)CC[C@@H]2O (stereo partly drawn)	451
C[C@H](CCC(=O)O)[C@H]1CCC2C3C[C@H](O)[C@@H]4C[C@H](O)CC[C@]4(C)C3CC[C@@]21C (stereo partly drawn)	459
C[C@@H]1O[C@@H](O[C@H]2C[C@@H](O)[C@]3(CO)[C@H]4[C@H](O)C[C@]5(C)[C@@H](C6=CC(=O)OC6)CC[C@]5(O)[C@@H]4CC[C@]3(O)C2)[C@H](O)[C@H](O)[C@H]1O	227
O=C(O)CCCCC(CCSCc1ccccc1)SCc1ccccc1 (stereo not drawn)	451
CCOC(=O)[C@@]1(CCCCCCOc2ccc(Cl)cc2)CO1	456
CN(C)C1=CC(=CC=C1)C\2=C\3C(=O)N(NC3=C/C(=O)N2C)C4=CC=CC=C4Cl	314

###

Tested on: P12-Ichikawa
ASSAY PROCEDURE: cell viability relative to DMSO control; higher = less cytotoxic
STUDY CONDITIONS: RPMI 5 mM glucose + 10% FBS; 48 h; 0.0211 µM
QUANTITY MEASURED: cell viability (%)

>>> df
                                   compound  target_of_assay  quantitative_result
0        NC(=O)Nc1sc(-c2ccc(F)cc2)cc1C(N)=O     P12-Ichikawa                  110
1  NC(=O)[C@H]1CCS[C@@H]2C[C@]3(CCCN3C(=O)Cc3ccc(NC(=O)COc4ccc(Cl)cc4Cl)cc3)C(=O)N12     P12-Ichikawa                  111
2  N[C@H]2CN(CC12CC1)c3c(F)cc4c(c3Cl)[N@@](C=C(C4=O)C(=O)O)C5C[C@H]5F (some centres undefined)     P12-Ichikawa                 90.4
3       CN(C)c1ccc2nc3ccc(N(C)C)cc3[s+]c2c1     P12-Ichikawa                  109
4  O=C(CC12CC3CC(CC(C3)C1)C2)Nc1cccc2nc(NCCNCCO)ccc12     P12-Ichikawa                 89.4
5  COC(=O)Nc1nc2cc(C(=O)c3ccc(F)cc3)ccc2[nH]1     P12-Ichikawa                 99.1
6  Cc1cc(OCCC[S+](C)(=O)[O-])cc(C)c1-c1cccc(COc2ccc3c(c2)OC[C@H]3CC(=O)O)c1     P12-Ichikawa                  103
7  O=C1CCC[C@@H]2[C@H]3CCCN4CCC[C@@H](CN12)[C@@H]34     P12-Ichikawa                 87.6
8  CC[C@]12CC[C@H]3[C@@H](CCC/4=C/C(=O)CC[C@H]34)[C@@H]1CC[C@@]2(O)C#C     P12-Ichikawa                 90.4

###

System: SEM cells
ASSAY PROCEDURE: cell viability relative to DMSO control; higher = less cytotoxic
STUDY CONDITIONS: RPMI 5 mM glucose + 10% FBS; 48 h; 0.000781 µM
QUANTITY MEASURED: cell viability (%)

MOLECULE	TARGET OF ASSAY	QUANTITATIVE RESULT
NC(=O)[C@H]1CCS[C@@H]2C[C@]3(CCCN3C(=O)Cc3ccc(NC(=O)COc4ccc(Cl)cc4Cl)cc3)C(=O)N12	SEM cells	105
NC[C@@H]1O[C@H](O[C@H]2[C@@H](O)[C@H](O[C@@H]3[C@@H](O)[C@H](N)C[C@H](N)[C@H]3O[C@H]3O[C@H](CN)[C@@H](O)[C@H](O)[C@H]3N)O[C@@H]2CO)[C@H](N)[C@@H](O)[C@@H]1O.O=S(=O)(O)O.O=S(=O)(O)O.O=S(=O)(O)O	SEM cells	92.9
CC[S+](=O)([O-])Nc1ccc2c(c1)/C(=C(/Nc1ccc(CN3CCCCC3)cc1)c1ccccc1)C(=O)N2	SEM cells	110
CCN1\C=C(\C(O)=O)C(=O)C2=C1N=C(N3CCNCC3)C(=C2)F	SEM cells	77.9
CC(C)(F)C[C@H](N[C@@H](c1ccc(-c2ccc([S+](C)(=O)[O-])cc2)cc1)C(F)(F)F)C(=O)NC1(C#N)CC1	SEM cells	90.4
OC[C@H]1O[C@H](C[C@@H]1O)N2\C=C(F)/C(=O)NC2=O	SEM cells	119
Cc1c(-c2cccc3c(CCCOc4cccc5ccccc45)c(C(=O)O)n(Cc4cccnc4)c23)c(COc2ccc(N3CCN([S+](=O)([O-])N(C)C)CC3)cc2)nn1C	SEM cells	100
N#CC(c1ccnc(NCCc2cccnc2)n1)c1nc2ccccc2s1 (stereo not given)	SEM cells	105
C[C@H]1C[C@H]2[C@@H]3CC[C@](O)(C(=O)CO)[C@@]3(C)C[C@H](O)[C@@H]2[C@@]\4(C)/C=C\C(=O)\C=C14	SEM cells	76.9
CCc1cc2c(cc1N1CCC(N3CCOCC3)CC1)C(C)(C)c1[nH]c3cc(C#N)ccc3c1C2=O	SEM cells	53.8
O=C([O-])C[C@H](O)C[C@H](O)/C=C/c1c(C2CC2)nc2ccccc2c1-c1ccc(F)cc1	SEM cells	99.4
CC[C@@H]1[C@@H](C)O[C@@](O)([C@@H](C)[C@H](O)[C@H](C)[C@H]2OC(=O)/C=C/C=C/[C@H](C)[C@@H]([C@@H](C)[C@@H](O)[C@H](C)[C@@]3(O)C[C@@H](O[C@H]4C[C@H](O)[C@H](O)[C@H](C)O4)[C@H](CC)[C@@H](C)O3)OC(=O)/C=C/C=C/[C@@H]2C)C[C@H]1O[C@H]1C[C@H](O)[C@H](O)[C@H](C)O1	SEM cells	113
CCN(CCO)CCCOc1ccc2c(Nc3cc(CC(=O)Nc4cccc(F)c4)[nH]n3)ncnc2c1	SEM cells	114
C[N]1C=C(C2=CC=CC=C12)\C3=C(\C(=O)NC3=O)C4=C[N](C5CCN(CC5)CC6=NC=CC=C6)C7=C4C=CC=C7	SEM cells	95.2
C=C1C(=O)OC(CCCCCCCC)C1C(=O)O (stereo not given)	SEM cells	97.5
O=C(CS(=O)Cc1ccco1)NC/C=C\COc1cc(CN2CCCCC2)ccn1 (stereo not given)	SEM cells	86
OC1=CC=C(C=C1)\C2=C\OC3=C(C(=CC(=C3)O)O)C2=O	SEM cells	93.1
CCOC(=O)C(C#N)C\1C2=CC(=CC=C2O\C(=C1C(=O)OCC)N)Br (stereo not given)	SEM cells	113
C=C1C(=O)[C@@]23C(CC[C@@H]1[C@H]2O)[C@@]12CO[C@]3(O)[C@@H](O)[C@@H]1C(C)(C)CC[C@@H]2O (stereo not given in full)	SEM cells	106
CCN(CC)CCOc1ccc(Cc2ccccc2)cc1	SEM cells	107
CC(NC(C)(C)C)C(=O)c1cccc(Cl)c1 (stereo not given)	SEM cells	106
CC(=O)OC[C@H]1O[C@@H]([S-])[C@H](OC(C)=O)[C@@H](OC(C)=O)[C@@H]1OC(C)=O.CCP(CC)CC.[Au+]	SEM cells	91.1
CC1(CN2CCC(n3c(=O)[nH]c4ccccc43)CC2)OCc2ccccc2-n2cccc21 (stereo not given)	SEM cells	88.6
COc1cc(Nc2c(C#N)cnc3cc(OCCCN4CCN(C)CC4)c(OC)cc23)c(Cl)cc1Cl	SEM cells	72.5
COc1cc2ncn(-c3cc(OCc4ccccc4[S+](C)(=O)[O-])c(C#N)s3)c2cc1OC	SEM cells	114

###

Test system: NOMO1
ASSAY PROCEDURE: cell viability relative to DMSO control; higher = less cytotoxic
STUDY CONDITIONS: RPMI 5 mM glucose + 10% FBS; 48 h; 0.00702 µM
QUANTITY MEASURED: cell viability (%)

COMPOUND	QUANTITY MEASURED	QUANTITATIVE RESULT
COC(=O)Nc1nc2cc(C(=O)c3ccc(F)cc3)ccc2[nH]1	cell viability	91.4
CC(=O)OC[C@H]1O[C@@H]([S-])[C@H](OC(C)=O)[C@@H](OC(C)=O)[C@@H]1OC(C)=O.CCP(CC)CC.[Au+]	cell viability	85.4
O=C(CCCCCCC(=O)Nc1cccnc1)NO	cell viability	98
Cc1ccccc1C(OCCN(C)C)c1ccccc1 (configuration not stated)	cell viability	120
CCn1c(-c2nonc2N)nc2c(C#CC(C)(C)O)ncc(OC[C@H]3CCCNC3)c21	cell viability	84.1
NC(=O)[C@H]1CCS[C@@H]2C[C@]3(CCCN3C(=O)Cc3ccc(NC(=O)COc4ccc(Cl)cc4Cl)cc3)C(=O)N12	cell viability	121
C[C@@H]1O[C@@H](O[C@H]2C[C@@H](O)[C@]3(CO)[C@H]4[C@H](O)C[C@]5(C)[C@@H](C6=CC(=O)OC6)CC[C@]5(O)[C@@H]4CC[C@]3(O)C2)[C@H](O)[C@H](O)[C@H]1O	cell viability	109
COc1ccc(C(CN(C)C)C2(O)CCCCC2)cc1 (configuration not stated)	cell viability	122
O=[N+]([O-])c1ncc[nH]1	cell viability	90.9
O=C(O)CCCCC(CCSCc1ccccc1)SCc1ccccc1 (configuration not stated)	cell viability	115
CC(C)(S)[C@@H](N)C(=O)O	cell viability	113
CN(C)C1=CC(=CC=C1)C\2=C\3C(=O)N(NC3=C/C(=O)N2C)C4=CC=CC=C4Cl	cell viability	122
N#C/C(=C\c1ccc(O)c(O)c1)C(=O)NCc1ccccc1	cell viability	84.5
CCOc1cc2ncc(C#N)c(Nc3ccc(F)c(Cl)c3)c2cc1NC(=O)/C=C/CN(C)C	cell viability	116
Cc1c(-c2cccc3c(CCCOc4cccc5ccccc45)c(C(=O)O)n(Cc4cccnc4)c23)c(COc2ccc(N3CCN([S+](=O)([O-])N(C)C)CC3)cc2)nn1C	cell viability	80.4
COc1cccc2c1C(=O)c1c(O)c3c(c(O)c1C2=O)C[C@@](O)(C(=O)CO)C[C@@H]3O[C@H]1C[C@H](N)[C@H](O[C@H]2CCCCO2)[C@H](C)O1	cell viability	122
CC(C)N(C[C@H]1O[C@@H](n2cnc3c(N)ncnc32)[C@H](O)[C@@H]1O)[C@H]1C[C@@H](CCc2nc3cc(C(C)(C)C)ccc3[nH]2)C1	cell viability	113
